assay: A quantitative high throughput screen for small molecules that induce DNA re-replication in MCF 10a normal breast cells.; note: nearly all actives have a fitted effect of over 50% in size; conditions: MCF 10A DNA re-replication, Hoechst nuclear intensity, 48 h; series mostly up to 46.1 µM
About 9,900 (2.8%) of roughly 350,000 compounds were called active. Inconclusive results (about 15%) are left out. Calls come from the whole dose curve; as a rule, active = well fitted activation curve with a large enough effect; inconclusive = small, poorly fitted or top-dose-only effect; inactive = no such curve, though single readings can be large or run the other way. Only a selection was taken, and actives are over-represented in it overall.
Result category, one only: active, inactive

- compound: "O=C1c2cccc3c([N+](=O)[O-])ccc(c23)C(=O)N1CC1CCCO1 (stereo not given)"
  class_label: "active"
- compound: "O=C(COC(=O)c1cccnc1Cl)NC12CC3CC(CC(C3)C1)C2"
  class_label: "inactive"
- compound: "O=C(N=C1SC2CS(=O)(=O)CC2N1c1ccccc1)c1ccccc1 (stereo not given)"
  class_label: "inactive"

Hi team, can someone confirm the assay call for CN1c2ccc([N+](=O)[O-])cc2C(C)(C)C12C=Cc1cc(C(=O)O)ccc1O2 (stereo not given) ? inactive

Query: recorded result category for CCCN1CCn2c3c(c4cc(Br)ccc42)CCCC31 (stereo not given) in this test active

Per the assay record, what outcome was assigned to COC(=O)[C@]1(CC(C)C)N[C@H](c2ccc(SC3CCCCC3)cc2)[C@@H]2C(=O)N(C)C(=O)[C@@H]21 ? inactive

I would be grateful if you could indicate the recorded call for CCCCn1c(=S)[nH]c2ccccc2c1=O . inactive

Which outcome was assigned to CN(C)c1ccc(/C=N/Nc2cc(N3CCOCC3)nc(N3CCOCC3)n2)cc1 in this test? inactive

Please state the recorded outcome for this compound: S=c1[nH]nc(-c2cccnc2)n1/N=C/C(Cl)=C\c1ccccc1 active

* * *

assay: A quantitative high throughput screen for small molecules that induce DNA re-replication in MCF 10a normal breast cells.; note: nearly all actives have a fitted effect of over 50% in size; settings: MCF 10A DNA re-replication, Hoechst nuclear intensity, 48 h; series mostly up to 46.1 µM
Screen size: about 350,000 compounds; about 9,900 (2.8%) were called active. Roughly 15% stayed inconclusive and do not appear here. Shown is part of a subset that was picked to be rich in actives.
outcome_measure: outcome

- molecule: "COc1ccc(CCNC(=O)Cc2ccc(C)cc2)cc1OC"
  outcome: "inactive"
- molecule: "CCOc1ccccc1Nc1nnc(SCC(=O)NCC2CCCO2)s1 (configuration not stated)"
  outcome: "inactive"
- molecule: "COc1cc2c(cc1OC)C(Cc1cc(OC)c(OC)cc1[N+](=O)[O-])=NCC2"
  outcome: "inactive"
- molecule: "CCN(CC)S(=O)(=O)c1cc(C(=O)Nc2cc(S(=O)(=O)N3CCOCC3)ccc2N2CCCC2)ccc1F"
  outcome: "inactive"
- molecule: "NC(=O)c1ncn([C@@H]2O[C@H](CNCc3cnc(N4CCOCC4)s3)[C@@H](O)[C@H]2O)n1"
  outcome: "inactive"
- molecule: "O=C(CS(=O)(=O)c1cn(Cc2cccc(F)c2)c2ccccc12)N1CCCCC1"
  outcome: "inactive"

Tell me the measured outcome of CCN(CC(=O)Nc1c(F)cccc1F)C(=O)Cc1cccs1 , please. inactive

* * *

experiment: A quantitative high throughput screen for small molecules that induce DNA re-replication in MCF 10a normal breast cells.; note: nearly all actives have a fitted effect of over 50% in size; settings: MCF 10A DNA re-replication, Hoechst nuclear intensity, 48 h; series mostly up to 46.1 µM
The whole screen tested about 350,000 compounds, of which about 9,900 (2.8%) were called active. Roughly 15% stayed inconclusive and do not appear here. The call rests on the fitted dose curve; in most records, active means well fitted activation curve with a large enough effect; inconclusive means small, poorly fitted or top-dose-only effect; inactive means no such curve, though single readings can be large or run the other way. Many of the other results were omitted from the sample, so actives are more common in it than they were.
Select the matching outcome among 1 for active, -1 for inactive

Please share the test call associated with CCCc1nc2oc3c(OCC)ncnc3c2c2c1COC(C)(C)C2 . -1
